# System: Yap1 mRNA
# assay-explanation: Dose-dependent inhibition of human Yap1 in SNU-449 cells (Example 9, RTS36584)
# Assay type: cell-based
# cond: 500.0 nM, free uptake, approximately 48 hours
# Protocol: Modified oligonucleotides described in the studies above were tested at various doses in SNU-449 cells. […] After approximately 48 hours, Yap1 mRNA levels were measured as previously described using the Human Yap1 primer-probe set RTS36584. Yap1 mRNA levels were normalized to total RNA content, as measured by RIBOGREEN®. […] IC50s were calculated using a linear regression on a log/linear plot of the data in excel.
Strand notation (5' to 3'): a small letter for the sugar, then the base; units joined by * are phosphorothioate-linked, units joined directly phosphodiester-linked; [ ] holds rarer units or linkages, { } end groups; capitals alone tell only the bases. e = 2'-O-(2-methoxyethyl) (MOE); k = constrained ethyl (cEt); [5mC] = 5-methylcytosine; d = 2'-deoxy (DNA); m = 2'-O-methyl
Each entry gets no if its % UTC (Yap1 mRNA) stays under 20 % UTC, and yes if its % UTC (Yap1 mRNA) is 20 % UTC or above.

{"columns": ["substance", "label-class"],
 "data": [
  ["1198384 (kT*dA*dT*dT*dA*dG*dA*dG*dT*dA*dT*kG*eT*kG*eG*k[5mC]; antisense) [compound 1198384]", "yes"],
  ["1198788 (kA*eA*kG*dT*dG*dT*dA*dT*dG*dT*d[5mC]*dA*eG*eA*kA*kG) [compound 1198788]", "no"],
  ["1197215 (kA*kA*kG*dT*dG*dT*dA*dT*dG*dT*d[5mC]*dA*dG*kA*kA*kG) [compound 1197215]", "no"],
  ["1200806 (kT*kG*kA*dG*dG*mU*dA*dT*dA*dA*d[5mC]*dT*dG*kG*kG*k[5mC]; antisense) [compound 1200806]", "yes"],
  ["958590 (kA*kG*kG*dT*dA*dT*dA*dA*d[5mC]*dT*dG*dG*dG*k[5mC]*kA*kA) [compound 958590]", "yes"],
  ["1198873 (kA*kG*dT*dG*dT*dA*dT*dG*dT*d[5mC]*dA*kG*eA*kA*eG*kA; antisense) [compound 1198873]", "no"],
  ["1197313 (kA*kG*kT*dG*mU*dA*dT*dG*dT*d[5mC]*dA*dG*dA*kA*kG*kA; antisense) [compound 1197313]", "no"],
  ["1198623 (CTAAGTAAGGTTTCCC; modified gapmer, further chemistry not given here) [compound 1198623]", "no"],
  ["1198724 (kA*eG*kA*dG*dT*dA*dT*dG*dT*dG*dG*d[5mC]*eA*eA*kT*kA; antisense) [compound 1198724]", "no"],
  ["1198904 (kT*kA*dT*dT*dA*dG*dA*dG*dT*dA*dT*kG*dT*kG*dG*k[5mC]; antisense) [compound 1198904]", "yes"],
  ["1198616 (kT*kT*kT*dA*dA*dA*dG*dT*dG*dT*dA*dT*kG*kT*k[5mC]*eA; antisense) [compound 1198616]", "no"],
  ["1198504 (kT*k[5mC]*dA*dG*dA*dT*dT*dT*dA*dG*dG*eA*kT*eG*k[5mC]*eA; antisense) [compound 1198504]", "yes"],
  ["1198501 (kG*kA*dT*dT*dT*dA*dG*dG*dA*dT*dG*e[5mC]*kA*eT*kG*eG; antisense) [compound 1198501]", "no"],
  ["1200794 (kA*kG*kA*dG*dT*mA*dT*dG*dT*dG*dG*d[5mC]*dA*kA*kT*kA; antisense) [compound 1200794]", "yes"]
]}

---

# System: Yap1 mRNA
# assay-explanation: Antisense inhibition of human Yap1 in A-431 cells by cEt gapmers, single dose (Example 1, RTS4814)
# Assay type: cell-based
# cond: Table 2; A-431 cells, free uptake, 2,000 nM, approximately 48 hours, RTS4814; Yap1 mRNA relative to untreated control cells
Strand notation (5' to 3'): a small letter for the sugar, then the base; units joined by * are phosphorothioate-linked, units joined directly phosphodiester-linked; [ ] holds rarer units or linkages, { } end groups; capitals alone tell only the bases. k = constrained ethyl (cEt); [5mC] = 5-methylcytosine; d = 2'-deoxy (DNA)

{"columns": ["substance", "YAP1 (% UTC)"],
 "data": [
  ["715533 (k[5mC]*k[5mC]*kT*dA*dA*d[5mC]*dA*dA*d[5mC]*d[5mC]*dT*dG*dG*kT*kT*kT; antisense) [Compound 715533]", 97],
  ["715431 (k[5mC]*k[5mC]*kA*dT*d[5mC]*d[5mC]*dT*dG*dA*dG*dT*d[5mC]*dA*kT*kG*kG; antisense) [Compound 715431]", 99],
  ["715629 (antisense kG*kA*kG*d[5mC]*d[5mC]*dT*dA*d[5mC]*d[5mC]*dT*dG*dA*d[5mC]*kA*kT*kT) [Compound 715629]", 112],
  ["715455 (antisense kT*kG*kA*dT*dA*dG*dG*dT*dG*d[5mC]*d[5mC]*dA*d[5mC]*kT*kG*kT) [Compound 715455]", 65],
  ["715404 (kA*kA*kG*dA*dA*dG*dG*dA*dG*dT*d[5mC]*dG*dG*kG*k[5mC]*kA; antisense) [Compound 715404]", 64],
  ["715497 (antisense kA*kA*k[5mC]*d[5mC]*d[5mC]*dT*dT*dG*dA*dA*dA*dA*dT*kA*kA*kG) [Compound 715497]", 155]
]}

---

# assay-explanation: Tolerability in Sprague-Dawley rats, body and organ weights (Example 21)
# Assay type: in vivo
# cond: male Sprague-Dawley rats, 50 mg/kg s.c. weekly for 6 weeks (7 doses), end of study
Strand notation (5' to 3'): a small letter for the sugar, then the base; units joined by * are phosphorothioate-linked, units joined directly phosphodiester-linked; [ ] holds rarer units or linkages, { } end groups; capitals alone tell only the bases. e = 2'-O-(2-methoxyethyl) (MOE); k = constrained ethyl (cEt); [5mC] = 5-methylcytosine; d = 2'-deoxy (DNA); m = 2'-O-methyl
assay-metric: Spleen weight (g)

{"columns": ["substance", "reported-measurement"],
 "data": [
  ["1200857 (kA*kG*kT*dG*dT*mA*dT*dG*dT*d[5mC]*dA*dG*dA*kA*kG*kA; antisense) [compound 1200857]", 2.55],
  ["1198874 (kA*kA*dG*dT*dG*dT*dA*dT*dG*dT*d[5mC]*kA*eG*kA*eA*kG) [compound 1198874]", 2.61],
  ["1198873 (kA*kG*dT*dG*dT*dA*dT*dG*dT*d[5mC]*dA*kG*eA*kA*eG*kA; antisense) [compound 1198873]", 2.42],
  ["1198440 (AAGTGTATGTCAGAAG; cEt, 2'-MOE, 5-methylcytosine, phosphorothioate modifications, further chemistry not given here) [compound 1198440]", 2.78],
  ["1198312 (kG*k[5mC]*kA*d[5mC]*dT*dT*dT*dT*dA*d[5mC]*dA*dT*kT*eA*kG*eG) [compound 1198312]", 2.19],
  ["1198612 (kA*kA*kG*dT*dG*dT*dA*dT*dG*dT*d[5mC]*dA*kG*kA*kA*eG) [compound 1198612]", 2.33],
  ["1198615 (kT*kT*kA*dA*dA*dG*dT*dG*dT*dA*dT*dG*kT*k[5mC]*kA*eG) [compound 1198615]", 2.35]
]}

---

# Tested on: Yap1 mRNA
# assay-explanation: Antisense inhibition of human Yap1 in A-431 cells by cEt gapmers, single dose (Example 2, RTS4814)
# Type: cell-based
# cond: Table 33; Yap1 mRNA, percent of untreated control; 3-10-3 cEt gapmers targeting SEQ ID NO.: 1, and 2
Strand notation (5' to 3'): a small letter for the sugar, then the base; units joined by * are phosphorothioate-linked, units joined directly phosphodiester-linked; [ ] holds rarer units or linkages, { } end groups; capitals alone tell only the bases. k = constrained ethyl (cEt); [5mC] = 5-methylcytosine; d = 2'-deoxy (DNA)
Label Yes when YAP1 (% UTC) is at or above 80 % UTC; otherwise label No.

{"columns": ["substance", "label-class"],
 "data": [
  ["1075283 (antisense k[5mC]*kG*kA*dA*dT*dA*dT*dA*dG*dA*dA*dA*dA*kA*kT*kG) [compound 1075283]", "Yes"],
  ["1075123 (k[5mC]*kT*kT*dT*dA*dG*dG*dA*dA*dA*dG*dG*dG*kT*kA*kT; antisense) [compound 1075123]", "No"],
  ["1074547 (kG*kA*kG*d[5mC]*dA*d[5mC]*dT*d[5mC]*d[5mC]*d[5mC]*d[5mC]*dT*dA*kG*kG*k[5mC]; antisense) [compound 1074547]", "No"],
  ["1074963 (antisense kT*kA*kG*dG*d[5mC]*dA*dA*dG*d[5mC]*dA*dG*d[5mC]*dT*kA*kA*kA) [compound 1074963]", "No"],
  ["1076019 (k[5mC]*kA*k[5mC]*dT*dA*dA*dT*dA*dG*dG*dA*dT*dG*kG*kA*kT; antisense) [compound 1076019]", "No"],
  ["1075795 (kG*kT*kA*dA*dT*dT*dA*dT*dA*dT*dA*d[5mC]*d[5mC]*k[5mC]*kA*k[5mC]; antisense) [compound 1075795]", "No"]
]}
